assay: Cytotoxicity against human HuH5.2 cells; assay type: cell-based, Huh-5-2
MCC overview

COMPOUND	MCC
NC(=O)c1ncn([C@@H]2O[C@H](COP(=O)(N[C@@H](Cc3ccccc3)C(=O)OCc3ccccc3)Oc3cccc4ccccc34)[C@@H](O)[C@H]2O)n1 (some centres undefined)	> 100 µM
NC(=O)c1ncn([C@@H]2O[C@H](CO)[C@@H](O)[C@H]2O)n1	> 100 µM
NC(=O)c1ncn([C@@H]2O[C@H](COP(=O)(NCC(=O)OCc3ccccc3)Oc3cccc4ccccc34)[C@@H](O)[C@H]2O)n1 (some centres undefined)	> 100 µM
C[C@H](NP(=O)(OC[C@H]1O[C@@H](n2cnc(C(N)=O)n2)[C@H](O)[C@@H]1O)Oc1cccc2ccccc12)C(=O)OCc1ccccc1 (some centres undefined)	> 100 µM
